Test system: Ca^+2 influx in Jurkat cells (clone E6-1)
Assay: Calcium influx assay (thapsigargin-stimulated, Fluo-3)
Type: cell-based
Settings: Homo sapiens; Jurkat cells clone E6-1, thapsigargin 100 nM, 10 min preincubation
OBSERVABLE: IC50 (nM)

Clc1ccc(-c2cncc3[nH]c4ccccc4c23)cc1 [Compound 13]	500

I = c1ccc(-c2cncc3[nH]c4ccccc4c23)cc1 [Compound 2, 4-Phenyl-β-carboline]
II = Cc1cccc(-c2cncc3[nH]c4ccccc4c23)c1 [Compound 9]
Field: entry with larger IC50 (options I / II ). Mark your selection by writing its label.
I
(I: 2200 nM, II: 1100 nM)

P = c1ccc(Cc2cncc3[nH]c4ccccc4c23)cc1 [Compound 37]
Q = Cc1ccc(-c2cncc3[nH]c4cc(C)ccc4c23)cc1 [Compound 17]
R = c1ccc2cc(-c3cncc4[nH]c5ccccc5c34)ccc2c1 [Compound 42]
S = O=C(c1ccccc1)c1ccc(-c2cncc3[nH]c4ccccc4c23)cc1 [Compound 25]
T = COC(=O)c1ccc2c(c1)[nH]c1cncc(-c3ccc(C)cc3)c12 [Compound 35]
Your job: order these 5 records by IC50, ascending. Output spec: a listing of the labels in the requested order.
Q, T, R, P, S
(Q: 400 nM, T: 700 nM, R: 1300 nM, P: 2200 nM, S: 7700 nM)

* * *

Tested on: Ca^+2 influx in Jurkat cells (clone E6-1)
Experiment: Calcium influx assay (thapsigargin-stimulated, Fluo-3)
Assay type: cell-based
Details: Homo sapiens; Jurkat cells clone E6-1, thapsigargin 100 nM, 10 min preincubation
OBSERVABLE: IC50 (nM)

c1ccc2c(c1)[nH]c1cncc(C3CCCCC3)c12 [Compound 38]	2200
CC(C)c1noc(-c2cncc3[nH]c4ccccc4c23)n1 [Compound 44]	1300
Clc1ccc(-c2cncc3[nH]c4ccccc4c23)cc1Cl [Compound 32]	1500
CCOc1ccc(-c2cncc3[nH]c4ccccc4c23)cc1 [Compound 12]	1200
Cc1ccnc(-c2cncc3[nH]c4ccccc4c23)c1 [Compound 40]	14400
Cc1ccc(-c2cncc3[nH]c4cccc(C)c4c23)cc1 [Compound 15]	900
Cc1cnc(-c2cncc3[nH]c4ccccc4c23)s1 [Compound 41]	17700
COc1ccc(-c2cncc3c2c2ccccc2n3C)cc1 [Compound 8]	2200

I = COc1ccc2c(c1)[nH]c1cncc(-c3ccc(C)cc3)c12 [Compound 22]
II = CC(C)c1ccc(-c2cncc3[nH]c4ccccc4c23)cc1 [Compound 20]
Field: entry with larger IC50 (options I / II ). Mark your selection by writing its label.
I

I = COc1cc(-c2cncc3[nH]c4ccccc4c23)cc(OC)c1OC [Compound 31]
II = Cc1ccc(-c2cncc3[nH]c4ccccc4c23)cc1 [Compound 1, 4-(p-Methylphenyl)-β-carboline]
Field: entry with larger IC50 (options I / II ). Mark your selection by writing its label.
I

The measured values listed here are drawn from patent US6093723A.
